Exercise: state measured HL-60 EC50 (normalized) for each of the binders provided.
Target: T1, PSGL-1 endogenously expressed on HL-60 cells (UniProt Q14242 42-412)
T1 construct: whole, on cells
T1 sequence (looked up): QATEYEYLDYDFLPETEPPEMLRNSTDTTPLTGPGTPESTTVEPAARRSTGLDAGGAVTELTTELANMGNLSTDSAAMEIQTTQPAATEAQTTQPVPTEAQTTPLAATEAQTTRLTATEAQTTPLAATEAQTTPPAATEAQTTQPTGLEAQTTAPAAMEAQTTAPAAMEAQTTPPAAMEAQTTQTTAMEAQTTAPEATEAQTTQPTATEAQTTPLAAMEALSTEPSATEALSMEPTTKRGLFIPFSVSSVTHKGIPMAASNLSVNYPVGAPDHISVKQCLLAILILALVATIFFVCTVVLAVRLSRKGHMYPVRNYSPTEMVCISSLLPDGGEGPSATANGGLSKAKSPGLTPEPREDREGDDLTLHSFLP
Assay: flow cytometry on HL-60 cells; against parent 20I15
Response body: numeric value in fold, unit text excluded.

Look up HL-60 EC50 (normalized): 20I15.001 (antibody, IgG4, V domains shown, Humanised; also called 20115.001) VH: EVQLVESGGGLVQPGGSLRLSCAASGFTFTDYYMSWVRQAPGKGLEWLGFIRNKANGYTTEYSASVKGRFTISRDNSKNSLYLQMNSLKTEDTAVYYCARTYLRRGYFDVWGQGTLVTVSS VL: DIQLTQSPSTLSASVGDRVTITCRASKSVSTSGYSYMHWFQQKPGKAPKLLIYLASNLESGVPSRFSGSGSGTEFTLTISSLQPDDFATYYCQHSRELPLTFGQGTKLEIK
0.4

Look up HL-60 EC50 (normalized): 20I15.008 (antibody, IgG4, V domains shown, Humanised) VH: EVKLVESGGGLVQPGGSLRLSCAASGFTFTDYYMSWVRQAPGKGLEWLGFIRNKAQGYTTEYSASVKGRFTISRDNSQNSLYLQMNSLKTEDTAVYYCARTYLRRGYFDVWGQGTLVTVSS VL: DIVLTQSPSTLSASVGDRVTITCRASKSVSTSGYSYMHWFQQKPGKAPKLLIYLASNLESGVPSRFSGSGSGTDFTLTISSLQPDDFATYYCQHSRELPLTFGQGTKLEIK
1.1

Look up HL-60 EC50 (normalized): 20I15.004 (antibody, IgG4, V domains shown, Humanised) VH: EVKLVESGGGLVQPGGSLRLSCAASGFTFTDYYMSWVRQAPGKGLEWLGFIRNKAQGYTTEYSASVKGRFTISRDNSQNSLYLQMNSLKTEDTAVYYCARTYLRRGYFDVWGQGTLVTVSS VL: DIQLTQSPSTLSASVGDRVTITCRASKSVSTSGYSYMHWFQQKPGKAPKLLIYLASNLESGVPSRFSGSGSGTEFTLTISSLQPDDFATYYCQHSRELPLTFGQGTKLEIK
0.7
